conditions: in n-butanol, 278.15 K
REPORTED_METRIC: solubility (mole fraction)

[[record]]
smiles_record = "CC(=O)c1ccc(S(C)(=O)=O)cc1"
meas_value = 0.0087


###

details: in ethanol, 308.15 K
REPORTED_METRIC: solubility (mole fraction)

[[record]]
smiles_record = "CC(=O)c1ccc(S(C)(=O)=O)cc1"
meas_value = 0.0249


###

conditions: in cyclohexane, 278.15 K
REPORTED_METRIC: solubility (mole fraction)

[[record]]
smiles_record = "CC(=O)c1ccc(S(C)(=O)=O)cc1"
meas_value = 0.0049


###

conditions: in isobutanol, 318.15 K
REPORTED_METRIC: solubility (mole fraction)

[[record]]
smiles_record = "CC(=O)c1ccc(S(C)(=O)=O)cc1"
meas_value = 0.0211


###

conditions: in ethyl acetate, 313.15 K
REPORTED_METRIC: solubility (mole fraction)

[[record]]
smiles_record = "CC(=O)c1ccc(S(C)(=O)=O)cc1"
reported_metric = "solubility (mole fraction)"
meas_value = 0.0501


###

details: in methanol, 288.15 K
REPORTED_METRIC: solubility (mole fraction)

[[record]]
smiles_record = "CC(=O)c1ccc(S(C)(=O)=O)cc1"
meas_value = 0.019


###

conditions: in cyclohexane, 293.15 K
REPORTED_METRIC: solubility (mole fraction)

[[record]]
smiles_record = "CC(=O)c1ccc(S(C)(=O)=O)cc1"
reported_metric = "solubility (mole fraction)"
meas_value = 0.0079


###

details: in methanol, 283.15 K
REPORTED_METRIC: solubility (mole fraction)

[[record]]
smiles_record = "CC(=O)c1ccc(S(C)(=O)=O)cc1"
reported_metric = "solubility (mole fraction)"
meas_value = 0.0173


###

conditions: in n-propanol, 308.15 K
REPORTED_METRIC: solubility (mole fraction)

[[record]]
smiles_record = "CC(=O)c1ccc(S(C)(=O)=O)cc1"
meas_value = 0.021


###

conditions: in ethanol, 323.15 K
REPORTED_METRIC: solubility (mole fraction)

[[record]]
smiles_record = "CC(=O)c1ccc(S(C)(=O)=O)cc1"
reported_metric = "solubility (mole fraction)"
meas_value = 0.0381


###

conditions: in n-propanol, 323.15 K
REPORTED_METRIC: solubility (mole fraction)

[[record]]
smiles_record = "CC(=O)c1ccc(S(C)(=O)=O)cc1"
meas_value = 0.0318


###

conditions: in ethanol, 298.15 K
REPORTED_METRIC: solubility (mole fraction)

[[record]]
smiles_record = "CC(=O)c1ccc(S(C)(=O)=O)cc1"
meas_value = 0.0197


###

conditions: in n-propanol, 283.15 K
REPORTED_METRIC: solubility (mole fraction)

[[record]]
smiles_record = "CC(=O)c1ccc(S(C)(=O)=O)cc1"
reported_metric = "solubility (mole fraction)"
meas_value = 0.0114


###

conditions: in ethyl acetate, 303.15 K
REPORTED_METRIC: solubility (mole fraction)

[[record]]
smiles_record = "CC(=O)c1ccc(S(C)(=O)=O)cc1"
reported_metric = "solubility (mole fraction)"
meas_value = 0.0402


###

settings: in n-butanol, 308.15 K
REPORTED_METRIC: solubility (mole fraction)

[[record]]
smiles_record = "CC(=O)c1ccc(S(C)(=O)=O)cc1"
reported_metric = "solubility (mole fraction)"
meas_value = 0.018


###

settings: in n-propanol, 293.15 K
REPORTED_METRIC: solubility (mole fraction)

[[record]]
smiles_record = "CC(=O)c1ccc(S(C)(=O)=O)cc1"
meas_value = 0.0144


###

details: in n-propanol, 303.15 K
REPORTED_METRIC: solubility (mole fraction)

[[record]]
smiles_record = "CC(=O)c1ccc(S(C)(=O)=O)cc1"
reported_metric = "solubility (mole fraction)"
meas_value = 0.0185


###

conditions: in n-butanol, 303.15 K
REPORTED_METRIC: solubility (mole fraction)

[[record]]
smiles_record = "CC(=O)c1ccc(S(C)(=O)=O)cc1"
meas_value = 0.016


###

conditions: in ethylene glycol, 323.15 K
REPORTED_METRIC: solubility (mole fraction)

[[record]]
smiles_record = "CC(=O)c1ccc(S(C)(=O)=O)cc1"
meas_value = 0.0507


###

conditions: in methanol, 318.15 K
REPORTED_METRIC: solubility (mole fraction)

[[record]]
smiles_record = "CC(=O)c1ccc(S(C)(=O)=O)cc1"
meas_value = 0.0421


###

settings: in n-propanol, 298.15 K
REPORTED_METRIC: solubility (mole fraction)

[[record]]
smiles_record = "CC(=O)c1ccc(S(C)(=O)=O)cc1"
meas_value = 0.0162


###

settings: in n-propanol, 313.15 K
REPORTED_METRIC: solubility (mole fraction)

[[record]]
smiles_record = "CC(=O)c1ccc(S(C)(=O)=O)cc1"
meas_value = 0.0241


###

details: in methanol, 303.15 K
REPORTED_METRIC: solubility (mole fraction)

[[record]]
smiles_record = "CC(=O)c1ccc(S(C)(=O)=O)cc1"
meas_value = 0.0281


###

conditions: in n-butanol, 283.15 K
REPORTED_METRIC: solubility (mole fraction)

[[record]]
smiles_record = "CC(=O)c1ccc(S(C)(=O)=O)cc1"
meas_value = 0.0096


###

conditions: in n-butanol, 298.15 K
REPORTED_METRIC: solubility (mole fraction)

[[record]]
smiles_record = "CC(=O)c1ccc(S(C)(=O)=O)cc1"
reported_metric = "solubility (mole fraction)"
meas_value = 0.014


###

settings: in ethyl acetate, 318.15 K
REPORTED_METRIC: solubility (mole fraction)

[[record]]
smiles_record = "CC(=O)c1ccc(S(C)(=O)=O)cc1"
meas_value = 0.0565


###

conditions: in ethylene glycol, 293.15 K
REPORTED_METRIC: solubility (mole fraction)

[[record]]
smiles_record = "CC(=O)c1ccc(S(C)(=O)=O)cc1"
meas_value = 0.0238


###

settings: in ethanol, 293.15 K
REPORTED_METRIC: solubility (mole fraction)

[[record]]
smiles_record = "CC(=O)c1ccc(S(C)(=O)=O)cc1"
meas_value = 0.0172


###

settings: in n-propanol, 328.15 K
REPORTED_METRIC: solubility (mole fraction)

[[record]]
smiles_record = "CC(=O)c1ccc(S(C)(=O)=O)cc1"
meas_value = 0.0365


###

settings: in methanol, 323.15 K
REPORTED_METRIC: solubility (mole fraction)

[[record]]
smiles_record = "CC(=O)c1ccc(S(C)(=O)=O)cc1"
reported_metric = "solubility (mole fraction)"
meas_value = 0.0481


###

conditions: in cyclohexane, 308.15 K
REPORTED_METRIC: solubility (mole fraction)

[[record]]
smiles_record = "CC(=O)c1ccc(S(C)(=O)=O)cc1"
reported_metric = "solubility (mole fraction)"
meas_value = 0.0129


###

details: in isobutanol, 283.15 K
REPORTED_METRIC: solubility (mole fraction)

[[record]]
smiles_record = "CC(=O)c1ccc(S(C)(=O)=O)cc1"
reported_metric = "solubility (mole fraction)"
meas_value = 0.0083


###

conditions: in ethylene glycol, 283.15 K
REPORTED_METRIC: solubility (mole fraction)

[[record]]
smiles_record = "CC(=O)c1ccc(S(C)(=O)=O)cc1"
meas_value = 0.0194


###

details: in n-hexane, 313.15 K
REPORTED_METRIC: solubility (mole fraction)

[[record]]
smiles_record = "CC(=O)c1ccc(S(C)(=O)=O)cc1"
meas_value = 0.0146


###

details: in n-hexane, 323.15 K
REPORTED_METRIC: solubility (mole fraction)

[[record]]
smiles_record = "CC(=O)c1ccc(S(C)(=O)=O)cc1"
reported_metric = "solubility (mole fraction)"
meas_value = 0.0204


###

settings: in n-propanol, 318.15 K
REPORTED_METRIC: solubility (mole fraction)

[[record]]
smiles_record = "CC(=O)c1ccc(S(C)(=O)=O)cc1"
meas_value = 0.0273


###

conditions: in ethylene glycol, 303.15 K
REPORTED_METRIC: solubility (mole fraction)

[[record]]
smiles_record = "CC(=O)c1ccc(S(C)(=O)=O)cc1"
meas_value = 0.0307


###

conditions: in ethanol, 313.15 K
REPORTED_METRIC: solubility (mole fraction)

[[record]]
smiles_record = "CC(=O)c1ccc(S(C)(=O)=O)cc1"
reported_metric = "solubility (mole fraction)"
meas_value = 0.0283


###

settings: in ethyl acetate, 308.15 K
REPORTED_METRIC: solubility (mole fraction)

[[record]]
smiles_record = "CC(=O)c1ccc(S(C)(=O)=O)cc1"
reported_metric = "solubility (mole fraction)"
meas_value = 0.0446


###

details: in ethyl acetate, 298.15 K
REPORTED_METRIC: solubility (mole fraction)

[[record]]
smiles_record = "CC(=O)c1ccc(S(C)(=O)=O)cc1"
reported_metric = "solubility (mole fraction)"
meas_value = 0.0361


###

conditions: in methanol, 278.15 K
REPORTED_METRIC: solubility (mole fraction)

[[record]]
smiles_record = "CC(=O)c1ccc(S(C)(=O)=O)cc1"
meas_value = 0.0161

